# subject-of-test: ChREBPα/14-3-3β (Homo sapiens, UniProt P31946+Q9NP71)
# Sequence (P31946 1-246): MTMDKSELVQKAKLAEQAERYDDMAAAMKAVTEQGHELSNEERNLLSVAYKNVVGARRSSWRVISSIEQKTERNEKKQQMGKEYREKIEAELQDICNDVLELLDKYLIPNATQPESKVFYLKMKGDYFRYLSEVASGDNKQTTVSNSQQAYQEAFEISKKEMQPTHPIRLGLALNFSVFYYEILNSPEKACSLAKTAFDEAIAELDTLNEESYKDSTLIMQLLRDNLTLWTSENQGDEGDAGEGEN
# Sequence (Q9NP71 117-142 limits assumed): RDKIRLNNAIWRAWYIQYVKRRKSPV
# run-description: FA compound titration, stabilization of FITC-ChREBPα peptide/14-3-3β
# Assay type: binding
# experimental-conditions: FA-based compound titrations
quantity: stabilization of the ChREBPα/14-3-3 PPI, in words

# molecule-smiles, result-value
data = [
    ("O=C(COc1ccccc1B(O)O)NCCc1ccccc1", "inactive"),
    ("NS(=O)(=O)c1ccccc1OCC(=O)NCCc1ccccc1", "inactive"),
]

====

Here, each record is paired with measured EC50 data.
# subject-of-test: ChREBPα/14-3-3β (Homo sapiens, UniProt P31946+Q9NP71)
# run-description: FA compound titration, stabilization of FITC-ChREBPα peptide/14-3-3β
# experimental-conditions: EC50, FITC-ChREBPα peptide 10 nM, 14-3-3β 150 nM; mean ± SD, n = 2
Give just the numeric value; µM need not be written.

# molecule-smiles, unit-annotation, EC50
data = [
    ("O=C(COc1ccc(OP(=O)(O)O)cc1)NCCc1ccccc1", "µM", 17.4),
]

Okay, next one:
Task: Quick check: EC50 of O=C(COc1ccccc1P(=O)(O)O)NCCc1ccc(OCc2ccccn2)cc1 ?
Result: 7.6

====

Here, each record is paired with measured pKd data.
# subject-of-test: ChREBPα/14-3-3β (Homo sapiens, UniProt P31946+Q9NP71)
# run-description: biochemical
# pKd = -log10(concentration in molar units)

# molecule, pKd
measured = [
    ("O=C(COc1ccccc1P(=O)(O)O)NCC(F)(F)c1cccc(F)c1 [compound 43]", 3.79),
]

Task: Quick check: pKd of O=C(COc1ccccc1P(=O)(O)O)NCC(F)(F)c1ccc(F)c(F)c1 [compound 53] ?
Result: 3.96

These entries and their values trace back to paper PMC11873037.
